The measurements presented in this section are drawn from patent US11529332B2.

Tested on: MYXV
Protocol: MYXV-GFP infection rate in RK13 cells (high content microscopy)
Condition Summary: read-out: IC50 (48 h PI); MYXV in RK13 cells, MOI 0.5, 48 h post-infection
pIC50: −log10 of the molar value.
Recorded pIC50 values for a group of compounds are listed next.
Property Label: pIC50

1. O=[N+]([O-])c1ccc(F)c(-c2c3nc(c4ccc([nH]4)c(-c4cc([N+](=O)[O-])ccc4F)c4ccc([nH]4)c(-c4cc([N+](=O)[O-])ccc4F)c4ccc2[nH]4)C=C3)c1 5.88
2. Fc1c(F)c(F)c(-c2c3nc(c4ccc([nH]4)c(-c4c(F)c(F)c(F)c(F)c4F)c4ccc([nH]4)c(-c4c(F)c(F)c(F)c(F)c4F)c4ccc2[nH]4)C=C3)c(F)c1F 6.57
3. O=[N+]([O-])c1ccc(-c2c3nc(c4ccc([nH]4)c(-c4ccc([N+](=O)[O-])cc4)c4ccc([nH]4)c(-c4ccc([N+](=O)[O-])cc4)c4ccc2[nH]4)C=C3)cc1 6.37
